# Test system: A549
# experimental_protocol: Antiproliferative activity against human A549 cells assessed as cell viability after 72 hrs by MTT assay
# Assay type: functional, cell-based
# test_parameters: A549, 72 h
experimental_readout: IC50 (µM)
// return numeric value only (unit: µM, not printed)

[
  {
    "structure": "COc1cc(F)c(NC(=O)c2ccnc(O)c2)cc1Nc1nccc(-c2cn(C)c3ccccc23)n1",
    "assay_value": 11.7
  },
  {
    "structure": "COc1cc(N(C)CCN(C)C)c(NC(=O)c2ccncn2)cc1Nc1nc(-c2cn(C)c3ccccc23)c2cccnc2n1",
    "assay_value": 4.52
  },
  {
    "structure": "COc1cc(N(C)CCN(C)C)c(NC(=O)c2ccnc(Cl)c2)cc1Nc1nccc(-c2cn(CCCO)c3ccccc23)n1",
    "assay_value": 2.14
  },
  {
    "structure": "COc1cc(N(C)CCN(C)C)c(NC(=O)c2ccncn2)cc1Nc1nccc(-c2cn(C)c3ccccc23)n1",
    "assay_value": 2.53
  },
  {
    "structure": "COc1cc(N(C)C)c(NC(=O)c2c[nH]cn2)cc1Nc1nccc(-c2cn(C)c3ccccc23)n1",
    "assay_value": 3.56
  },
  {
    "structure": "COc1cc(F)c(NC(=O)c2ncccn2)cc1Nc1nccc(-c2cn(C)c3ccccc23)n1",
    "assay_value": 8.4
  },
  {
    "structure": "COc1cc(N(C)CCN(C)C)c(NC(=O)c2ccncc2OC)cc1Nc1nccc(-c2cn(CCCO)c3ccccc23)n1",
    "assay_value": 2.39
  }
]

Request: Check the records and state IC50 for C=CC(=O)Nc1cc(Nc2nccc(-c3cn(C)c4ccccc34)n2)c(OC)cc1N(C)CCN(C)C
Response: 1.87

* * *

# experimental_target: Epidermal growth factor receptor (Homo sapiens, UniProt P00533, L858R/T790M)
# Sequence (P00533 25-1210 T790M/L858R limits assumed): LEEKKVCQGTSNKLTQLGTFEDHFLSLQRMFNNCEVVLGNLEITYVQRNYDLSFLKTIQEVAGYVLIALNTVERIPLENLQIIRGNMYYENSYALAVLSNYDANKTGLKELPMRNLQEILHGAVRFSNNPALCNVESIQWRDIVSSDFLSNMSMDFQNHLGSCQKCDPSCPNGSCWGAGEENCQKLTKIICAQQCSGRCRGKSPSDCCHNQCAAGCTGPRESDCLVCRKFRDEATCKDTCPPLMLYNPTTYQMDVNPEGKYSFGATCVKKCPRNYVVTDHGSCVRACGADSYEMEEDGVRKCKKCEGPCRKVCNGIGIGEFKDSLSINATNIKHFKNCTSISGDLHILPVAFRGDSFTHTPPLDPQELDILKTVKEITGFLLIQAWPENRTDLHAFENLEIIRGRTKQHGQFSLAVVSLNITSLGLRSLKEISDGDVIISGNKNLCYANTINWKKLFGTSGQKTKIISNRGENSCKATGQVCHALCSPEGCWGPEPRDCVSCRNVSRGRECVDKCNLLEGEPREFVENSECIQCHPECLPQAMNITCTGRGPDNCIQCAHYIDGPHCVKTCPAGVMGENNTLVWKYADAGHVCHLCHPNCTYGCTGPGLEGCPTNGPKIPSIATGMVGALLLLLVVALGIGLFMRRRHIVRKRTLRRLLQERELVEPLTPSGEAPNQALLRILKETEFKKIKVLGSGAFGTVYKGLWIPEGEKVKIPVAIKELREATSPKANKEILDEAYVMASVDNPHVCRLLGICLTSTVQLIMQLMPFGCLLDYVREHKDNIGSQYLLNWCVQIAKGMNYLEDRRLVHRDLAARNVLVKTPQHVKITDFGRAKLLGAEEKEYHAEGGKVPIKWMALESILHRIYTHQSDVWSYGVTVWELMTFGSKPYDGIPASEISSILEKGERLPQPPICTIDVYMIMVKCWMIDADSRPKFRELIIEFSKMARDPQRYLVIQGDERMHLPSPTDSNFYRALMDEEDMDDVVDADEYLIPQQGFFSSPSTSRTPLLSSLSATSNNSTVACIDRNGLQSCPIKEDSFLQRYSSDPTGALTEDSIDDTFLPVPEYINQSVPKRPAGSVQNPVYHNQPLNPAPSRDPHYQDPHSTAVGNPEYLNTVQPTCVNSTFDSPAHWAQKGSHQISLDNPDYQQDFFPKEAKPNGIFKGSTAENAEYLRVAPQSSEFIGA
# experimental_protocol: Inhibition of EGFR L858R/T790M mutant (unknown origin) by mobility shift assay
experimental_readout: IC50 (nM)
// return numeric value only (unit: nM, not printed)

[
  {
    "structure": "COc1cc(N(C)CCN(C)C)c(NC(=O)c2ncccn2)cc1Nc1nccc(-c2cn(C)c3ccccc23)n1",
    "result_units": "nM",
    "IC50": 30
  },
  {
    "structure": "COc1cc(N(C)CCN(C)C)c(NC(=O)c2ccncc2)cc1Nc1nccc(-c2cn(C)c3ccccc23)n1",
    "result_units": "nM",
    "IC50": 391
  },
  {
    "structure": "COc1cc(N(C)CCN(C)C)c(NC(=O)c2ccnc(Cl)c2)cc1Nc1nccc(-c2cn(CCCO)c3ccccc23)n1",
    "result_units": "nM",
    "IC50": 42
  },
  {
    "structure": "COc1cc(N(C)CCN(C)C)c(NC(=O)c2ccncn2)cc1Nc1nccc(-c2cn(CCCO)c3ccccc23)n1",
    "result_units": "nM",
    "IC50": 41
  }
]

Request: Check the records and state IC50 for COc1cc(N(C)CCN(C)C)c(NC(=O)c2nccn2C)cc1Nc1nc(-c2cn(C)c3ccccc23)c2cccnc2n1
Response: 420

Request: Check the records and state IC50 for COc1cc(N(C)CCN(C)C)c(NC(=O)c2cnccn2)cc1Nc1nccc(-c2cn(C)c3ccccc23)n1
Response: 17

Request: Check the records and state IC50 for COc1cc(N(C)CCN(C)C)c(NC(=O)c2cccnc2)cc1Nc1nccc(-c2cn(C)c3ccccc23)n1
Response: 360

Request: Check the records and state IC50 for COc1cc(N(C)CCN(C)C)c(NC(=O)c2ccncn2)cc1Nc1nccc(-c2cn(C)c3ccccc23)n1
Response: 10

Request: Check the records and state IC50 for COc1cc(N(C)CCN(C)C)c(NC(=O)c2ccncc2OC)cc1Nc1nccc(-c2cn(C)c3ccccc23)n1
Response: 100
